For each record, write down the corresponding protein stability index.
Tested on: Saccharomyces cerevisiae
PROTOCOL SUMMARY: protein stability index of tFT-peptide fusion (C-terminal peptide) (PSI (0-1 scale)); higher = more stable (slower turnover);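 also: PSI is a weighted mean of sequencing reads over stability bins, variants kept only with over 10 reads, mCherry proximal and sfGFP distal, peptide attached via GGGS linker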
TEST SETTINGS: genetic background: wild type; temperature: 30 C
Output spec: single numeric token, no unit.

protein stability index reading for GSRGGVAYGRVG : 0.741

Just so you know, measured protein stability index for ECGLGGGGGLGV came out at 0.689

LDVFSLASRPDG yielded protein stability index of 0.593

Entry GGVGGGVRRPGE ; protein stability index = 0.669

Record AGAGLGVVLGWW . Reported protein stability index: 0.684

For record RRNDRKKKSIRI the listed protein stability index is 0.684

response.value for IQHWGIRRRITY (field: protein stability index) = 0.728

Sample GALVVSWAEVLC ; protein stability index observed: 0.503

Just so you know, measured protein stability index for PKRTHDPAPKTT came out at 0.709

Summary for this sequence, GLCRRLDRQLAN : protein stability index is 0.679

* * *

System: Saccharomyces cerevisiae
PROTOCOL SUMMARY: protein stability index of tFT-peptide fusion (C-terminal peptide) (PSI (0-1 scale)); higher = more stable (slower turnover)
TEST SETTINGS: genetic background: wild type; temperature: 30 C
ASSAY METRIC: protein stability index
The response must contain the number and no unit.

Form field protein stability index, entry ARRRINKKIKKV : 0.554

Item: AVLTLRAPPSAL | protein stability index: 0.708

Entry PLHLYPHPPTHS ; protein stability index = 0.698

Recorded result, YRLLRINFALPI , protein stability index: 0.622

Lab book: protein stability index of RGRMGLGAPGGG noted as 0.615

Entry under test: LPPSSCPPPPTP . Its protein stability index was 0.702

Sample PPPHPPPRLPSP ; protein stability index observed: 0.604

For this sequence ( PPRAPLPRPPQP ), measured protein stability index is 0.656

// protein stability index value for PTPAPLPPPSPP : 0.592

Measured protein stability index, RLVYSQKRWSLF : 0.24

Value of measured protein stability index for the entry TGSKKKKVEIEM : 0.679

Lab note: PAPPLPPPAAPP gave protein stability index of 0.576

Just so you know, measured protein stability index for LGYGERAGVGKR came out at 0.695

// RLAVGMIRPQGE : protein stability index value = 0.637

Quick note, protein stability index for LGLGSFPLMDLS landed at 0.738

protein stability index measured on VFVRDFLVSIVV = 0.257

protein stability index reading for AIGAVEGGRMRE : 0.575

The sequence identified as FSPPSPPHPSPL registered its protein stability index at 0.741

For this sequence ( RSPLNTAPLRNR ), measured protein stability index is 0.682

* * *

System: Saccharomyces cerevisiae
PROTOCOL SUMMARY: protein stability index of tFT-peptide fusion (C-terminal peptide) (PSI (0-1 scale)); higher = more stable (slower turnover)
TEST SETTINGS: genetic background: cdc53-1; temperature: 37 C
ASSAY METRIC: protein stability index

Please fill in: protein stability index reported for YVWPKRRGLRVA = 0.674

Sure, the documented protein stability index for GGWGVFGVWVWM is 0.557

According to the records, this sequence VGAYSVVYVVFS displays protein stability index of 0.517

Entry VSVFWVFLLVAG , protein stability index reported as 0.375

Form: sequence = SIPVWTIELFAT ; protein stability index = 0.627

protein stability index measured on YIYIFLVWGWYC = 0.314

Recorded protein stability index (sequence PLLPCRPILFLL ): 0.627

protein stability index in this record for FFLRFGLFLFTL : 0.511

// field: protein stability index; key: QDFFYCLLVATS ; value = 0.276

Per the records, this sequence ( LLFLWVLFLPFA ) has protein stability index equal to 0.469

Summary for this sequence, PRFCVYARFHNT : protein stability index is 0.748

Noted for GLSLVCWIVVLG : its protein stability index reads 0.202

Note to self: protein stability index recorded for RSPVVVFAVLLF was 0.481

Lookup result for FFFFFLLFFLRV ; measured protein stability index: 0.247

protein stability index recorded for this sequence, SLPIFSGVASVR , is 0.737

Field protein stability index (entry DFIVVIRFIQII ) reads 0.376

Recorded result, VFFCVLRVFFSA , protein stability index: 0.161

Recorded result, RRVPVHIHFSLF , protein stability index: 0.707

Form: sequence = VSDLYLSLVRVV ; protein stability index = 0.593

Kindly note the recorded protein stability index for VFSFWVLCEVSV , which is 0.0546

So, CLISILLFLCFT ? Its protein stability index was 0.509

The recorded protein stability index for entry VGGREVSRAGGG equals 0.672

Entry VCFLCIWLYSED , protein stability index reported as 0.358

protein stability index reported for this sequence ARLTNYFVEWLS : 0.757

Value of protein stability index reported for the sequence RLELTRIMIVAI is 0.0802

The value of protein stability index measured for the sequence KLLDHFVKIRVY turned out to be 0.2

Lookup result for WILPASFCVVFL ; measured protein stability index: 0.533

Reported protein stability index for FLFFRFLVGCCF was 0.396

The sequence listed as FWYIRIRLAVVA has a reported protein stability index of 0.175

Record LCVFRFFLFFFL , field protein stability index: 0.371

For IPFRRCFWFFWV the sequence record lists protein stability index as 0.7

Short answer for GIISMYVARRLG : protein stability index was 0.689

For this sequence ( LASFCSVCIFIS ), measured protein stability index is 0.31

// protein stability index lookup, sequence = ISVSFSVIFFLL , result: 0.398

Lookup result for CDSRIRKIWSYL ; measured protein stability index: 0.883

For record SWMSQFSILLTA the listed protein stability index is 0.122

Entry GSLLWSGWSTCY — recorded protein stability index = 0.811

protein stability index reading for RVVILFVFLVYV : 0.342

The measured protein stability index associated with EGALSGGGKTSG reads 0.719

Form: sequence = ASGVFSRLVLVS ; protein stability index = 0.335

Lookup result for GGGVGVAVVLFW ; measured protein stability index: 0.501

* * *

Could you please report measured protein stability index for the items listed next?
Test system: Saccharomyces cerevisiae
PROTOCOL SUMMARY: protein stability index of tFT-peptide fusion (C-terminal peptide) (PSI (0-1 scale)); higher = more stable (slower turnover)
TEST SETTINGS: genetic background: wild type; temperature: 30 C
API note: the answer field is a bare number with no unit suffix.

Entry HAHPDQTKLDTA — recorded protein stability index = 0.7

The sequence identified as VVGFVFSCWWSW registered its protein stability index at 0.5

Data point: HGFHSPPSDLPT ; protein stability index = 0.724

Sample QLYGHNRRNQGL ; protein stability index observed: 0.611

The measured protein stability index associated with RCSLLVVPHSPP reads 0.717

The value of protein stability index measured for the sequence GGGVWWGVLVLG turned out to be 0.461

sequence IKKRVTFSYDGK , protein stability index observed: 0.686

What the record says about GRDFASNFRQLG : protein stability index is 0.718

Record PLSPLSLSPVAP , field protein stability index: 0.62

get_value(item= CGLGGLYLVLHD , readout=protein stability index) returns 0.671

Record RKEQKGKGKEGG . Reported protein stability index: 0.697

// recorded protein stability index for EAVNLDSWAAGQ : 0.828

Lab book: protein stability index of RSPVVVFAVLLF noted as 0.423

The recorded protein stability index for IGATSMSREARY is 0.705

protein stability index recorded for this sequence, GQEGQIPPGNVH , is 0.709

What the record says about RLSPPPTLSRFH : protein stability index is 0.643

The reported value for GFGRDHGNDTGP in terms of protein stability index is 0.721

Input WRAGGGGGPAGV . Output protein stability index: 0.679

# protein stability index (sequence: TSPPPPSPPPPP ) is 0.785

* * *

Tested on: Saccharomyces cerevisiae
PROTOCOL SUMMARY: protein stability index of tFT-peptide fusion (C-terminal peptide) (PSI (0-1 scale)); higher = more stable (slower turnover)
TEST SETTINGS: genetic background: das1 deletion; temperature: 30 C
ASSAY METRIC: protein stability index
# print the numeric value only

Looking up RRFKKTEIIKNN , I see its protein stability index listed as 0.653

Sure, the documented protein stability index for RLVIFITRYLIS is 0.349

Lab book: protein stability index of GMMLLRFIIRWY noted as 0.141

The sequence identified as SHPFIRSLVFLA registered its protein stability index at 0.629

// protein stability index value for VGVYVWRGVLWA : 0.257

So, CVFFPFLGVCYV ? Its protein stability index was 0.333

Lab note: measured protein stability index of RSRRNRYSRKIA was 0.696

Lab book: protein stability index of GSWGGGWRYVGW noted as 0.663

Quick note, protein stability index for PRFWFYLSYSVH landed at 0.373

Reported protein stability index ( RSRCVRAAVKVG ) = 0.569

Entry VFGWWSVVLRVA , protein stability index reported as 0.166

Quick note, protein stability index for VVGFVFSCWWSW landed at 0.367

Record LFWTWVLVGVSV , field protein stability index: 0.192

Note to self: protein stability index recorded for RIKVTRRIIIYA was 0.239

Per the record, LPPHSASLSSSF has protein stability index of 0.635

protein stability index for MIQPRLANIIIS is 0.683

For this sequence ( GPFVRSALIFIF ), measured protein stability index is 0.467

Lab note: VYGSLPVVVCRI gave protein stability index of 0.409

Per the records, this sequence ( QDFFYCLLVATS ) has protein stability index equal to 0.21

Briefly, protein stability index measured for FVLSLGQLVFIF : 0.421

protein stability index in this record for ISVSFSVIFFLL : 0.372

The sequence FAKRVARVAREH showed protein stability index equal to 0.645

So, VGAGVFAWLWVA ? Its protein stability index was 0.59

Recorded values, source the supplement of paper PMC10724198.
